biological target: human corticotropin-releasing factor 2α (CRF2 α receptor) (human), Q13324; test: cell-based or functional assay
Sequence (Q13324 20-411): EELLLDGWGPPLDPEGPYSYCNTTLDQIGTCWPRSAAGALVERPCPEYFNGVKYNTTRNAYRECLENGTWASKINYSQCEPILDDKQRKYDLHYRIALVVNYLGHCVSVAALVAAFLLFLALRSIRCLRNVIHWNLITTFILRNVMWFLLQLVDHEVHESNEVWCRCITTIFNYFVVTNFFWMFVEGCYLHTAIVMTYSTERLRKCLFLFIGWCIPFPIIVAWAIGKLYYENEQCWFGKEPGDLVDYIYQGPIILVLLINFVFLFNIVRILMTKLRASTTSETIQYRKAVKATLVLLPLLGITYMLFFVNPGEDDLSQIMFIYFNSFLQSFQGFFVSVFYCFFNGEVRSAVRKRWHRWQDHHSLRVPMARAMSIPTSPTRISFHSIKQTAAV
Starred links: 1 amine or outer side, 2 acyl side, 3 side chain; linkers in the order of their positions; H or OH if unused. Non-standard residues stand in square brackets, D forms with d. Groups on a side chain read outwards from the residue. No end group written: not given here. *: point of attachment. C18 diacid = O=C(O)CCCCCCCCCCCCCCCCC(=O)*; γGlu = O=C(O)[C@H](CCC(=O)[*:2])N[*:1]; Palmitoyl = CCCCCCCCCCCCCCCC(=O)*; AEEA = NCCOCCOCC(=O)O; Aib = CC(C)(N)C(=O)O
Param label: returns 1 (yes) when EC50 [nM], 0.1% HSA < 10 nM, returns 0 (no) otherwise, including exact equality.

Query :: Determine if FTLSLDVPTKIKQILLKQQKQKKERQQAEKNKQLLEQI-NH2 (not fully specified (residue 12); printed as FTLSLDVPTKIK*QILLKQQKQKKERQQAEKNKQLLEQI-NH2) [SEQ ID NO: 59] shows EC50 [nM], 0.1% HSA strictly lower than 10 nM.
Result :: 0 (no)

Query :: Would you kindly verify if EC50 [nM], 0.1% HSA of IVLSLDVPIKLK([AEEA-AEEA-γGlu-C18 diacid])QILLKQERQKKQRQQAETNKQILAQV-NH2 [SEQ ID NO: 113] is strictly less than 10 nM?
Result :: 0 (no)

Query :: EC50 [nM], 0.1% HSA under 10 nM? Item: IVLSLD[dV]PTKLK([γGlu-Palmitoyl])QKLLKQERQRKEREQAEKNARILARV-NH2 [SEQ ID NO: 7]
Result :: 1 (yes)

Query :: Criterion: EC50 [nM], 0.1% HSA strictly below 10 nM. Is it met by Ac-IVLSLD[dV]PIHLK([AEEA-AEEA-γGlu-C18 diacid])QILLEQERQK[Aib]QREQAEKNKQILEQV-NH2 [SEQ ID NO: 163] ?
Result :: 1 (yes)

Query :: For IVLSLDVPIKLK([AEEA-AEEA-γGlu-C18 diacid])QILLEQARQK[Aib]QRAQAETNKRILERV-NH2 [SEQ ID NO: 114] , is the recorded EC50 [nM], 0.1% HSA below the cut-off of 10 nM?
Result :: 0 (no)

Source of measurements: patent US12679878B2
